target under test: human norepinephrine (NE) reuptake transporter (Homo sapiens)
Construct: expressed in transfected cells
experiment notes: functional uptake assay, human NE reuptake transporter
Assay type: cell-based
applied conditions: read-out: NE IC50 nM; Example 6 summary of selected in vitro data

- molecule: "CNC[C@@H]1CCCC[C@@]1(O)c1ccc(Cl)c(Cl)c1 [Compound 4]"
  target under test: "human norepinephrine (NE) reuptake transporter (Homo sapiens)"
  IC50: "10 to 200 nM"

====

target under test: human norepinephrine (NE) reuptake transporter (Homo sapiens, UniProt P23975)
Construct: expressed in transfected cells
Sequence (P23975 whole entry): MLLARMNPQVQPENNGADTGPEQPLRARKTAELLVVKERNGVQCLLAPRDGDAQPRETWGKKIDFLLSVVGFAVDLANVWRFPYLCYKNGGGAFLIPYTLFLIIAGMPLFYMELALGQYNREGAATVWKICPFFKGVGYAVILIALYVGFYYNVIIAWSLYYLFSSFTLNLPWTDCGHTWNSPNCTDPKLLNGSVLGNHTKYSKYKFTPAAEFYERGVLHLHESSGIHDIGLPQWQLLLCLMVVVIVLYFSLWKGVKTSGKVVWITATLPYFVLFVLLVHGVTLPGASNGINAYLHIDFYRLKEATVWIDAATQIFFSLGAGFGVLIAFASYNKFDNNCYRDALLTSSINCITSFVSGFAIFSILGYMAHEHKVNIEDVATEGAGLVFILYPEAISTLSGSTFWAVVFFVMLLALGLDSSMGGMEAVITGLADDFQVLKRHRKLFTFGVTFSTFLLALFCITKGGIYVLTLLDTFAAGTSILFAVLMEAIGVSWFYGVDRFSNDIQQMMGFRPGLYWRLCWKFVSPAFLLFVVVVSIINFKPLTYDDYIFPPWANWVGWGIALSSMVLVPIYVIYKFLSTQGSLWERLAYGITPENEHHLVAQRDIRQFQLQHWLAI
experiment notes: functional uptake assay, human NE reuptake transporter
Format: cell-based
measured attribute: IC50

- compound: "CNC[C@@H]1CCCC[C@@]1(O)c1ccc(Cl)c(Cl)c1 [Compound 4]"
  measured attribute: "IC50"
  val: "10 to 200 nM"
- compound: "CN(C)C[C@@H]1CCCC[C@@]1(O)c1ccc(Cl)c(Cl)c1 (single isomer, unassigned) [Compound 2]"
  measured attribute: "IC50"
  val: "10 to 200 nM"

====

target under test: HERG current (Homo sapiens)
Sequence (Q12809 whole entry): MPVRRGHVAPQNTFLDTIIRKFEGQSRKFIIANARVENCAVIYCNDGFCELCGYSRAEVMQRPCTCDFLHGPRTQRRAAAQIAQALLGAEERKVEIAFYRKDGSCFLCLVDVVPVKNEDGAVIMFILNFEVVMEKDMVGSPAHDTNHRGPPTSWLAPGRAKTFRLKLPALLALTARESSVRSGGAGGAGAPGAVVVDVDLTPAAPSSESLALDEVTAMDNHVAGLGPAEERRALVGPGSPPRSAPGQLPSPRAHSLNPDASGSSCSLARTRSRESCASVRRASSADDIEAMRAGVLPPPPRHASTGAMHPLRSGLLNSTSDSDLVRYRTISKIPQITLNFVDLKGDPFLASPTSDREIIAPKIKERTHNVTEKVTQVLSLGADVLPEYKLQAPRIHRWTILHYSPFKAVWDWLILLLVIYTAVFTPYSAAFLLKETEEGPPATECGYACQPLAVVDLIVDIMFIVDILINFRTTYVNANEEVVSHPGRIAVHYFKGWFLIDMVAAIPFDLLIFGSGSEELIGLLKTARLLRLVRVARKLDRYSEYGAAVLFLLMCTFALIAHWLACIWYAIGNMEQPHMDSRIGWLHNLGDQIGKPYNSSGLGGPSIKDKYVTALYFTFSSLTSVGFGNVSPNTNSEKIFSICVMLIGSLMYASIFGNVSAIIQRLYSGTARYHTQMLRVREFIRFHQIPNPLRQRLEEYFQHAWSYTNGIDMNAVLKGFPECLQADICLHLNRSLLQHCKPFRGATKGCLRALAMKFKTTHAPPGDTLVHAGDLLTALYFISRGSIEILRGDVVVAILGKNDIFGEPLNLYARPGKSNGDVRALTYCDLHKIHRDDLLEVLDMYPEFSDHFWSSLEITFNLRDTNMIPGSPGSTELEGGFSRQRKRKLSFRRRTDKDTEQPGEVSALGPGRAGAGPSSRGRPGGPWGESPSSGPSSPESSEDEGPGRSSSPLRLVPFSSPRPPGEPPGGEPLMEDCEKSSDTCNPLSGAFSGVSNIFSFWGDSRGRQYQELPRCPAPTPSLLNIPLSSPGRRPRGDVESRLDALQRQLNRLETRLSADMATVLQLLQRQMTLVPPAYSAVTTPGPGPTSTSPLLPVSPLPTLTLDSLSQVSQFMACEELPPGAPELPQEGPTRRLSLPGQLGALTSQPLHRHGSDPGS
experiment notes: inhibition of HERG current
Assay type: cell-based
applied conditions: read-out: HERG IC50
pIC50: −log10 of the molar value.

- compound: "CN(C)C[C@@H]1CCCC[C@@]1(O)c1ccc(Cl)c(Cl)c1 (single isomer, unassigned) [Compound 2]"
  target under test: "HERG current (Homo sapiens)"
  pIC50: "4.52 to 4.80"

====

Tested on: CYP2D6, CYP2C9, CYP3A4, CYP2C19, CYP1A (printed 1a)
experiment notes: inhibition of CYP450 enzymes
Assay type: in vitro ADME
applied conditions: 5 isoforms; read-out: CYP inhibition IC50 (microM) 5 isoforms (2D6, 2C9, 3A4, 2C19, 1a)
pIC50: −log10 of the molar value.
measured attribute: pIC50

- compound: "CNC[C@@H]1CCCC[C@@]1(O)c1ccc(Cl)c(Cl)c1"
  val: "< 5.00"
- compound: "CN(C)C[C@@H]1CCCC[C@@]1(O)c1ccc(Cl)c(Cl)c1 (single isomer, unassigned)"
  val: "< 4.70"
